# System: β-Glucosidase derived from A. niger
# testProtocol: Reactivity toward various isoflavone glycosides (HPLC)
# Format: biochemical, Aspergillus niger
# Parameters: unit not given here
# conditionsUsed: Reaction time 0 h; 55 °C, pH 4.0
measurementType: glucoside

[[record]]
compoundstructure = "COc1cc2c(=O)c(-c3ccc(O)cc3)coc2cc1O[C@@H]1O[C@H](CO)[C@@H](O)[C@H](O)[C@H]1O"
experimentalsystem = "β-Glucosidase derived from A. niger"
quantitativereadout = 100

[[record]]
compoundstructure = "CC(=O)OC[C@H]1O[C@@H](Oc2cc(O)c3c(=O)c(-c4ccc(O)cc4)coc3c2)[C@H](O)[C@@H](O)[C@@H]1O"
experimentalsystem = "β-Glucosidase derived from A. niger"
quantitativereadout = 100

[[record]]
compoundstructure = "CC(=O)OC[C@H]1O[C@@H](Oc2ccc3c(=O)c(-c4ccc(O)cc4)coc3c2)[C@H](O)[C@@H](O)[C@@H]1O"
experimentalsystem = "β-Glucosidase derived from A. niger"
quantitativereadout = 100


###

# Tested on: Crude diglycosidase
# testProtocol: Examination of temperature in the conversion into isoflavone aglycons by diglycosidase using soybean materials
# Type: biochemical, Penicillium multicolor IAM7153
# Design: concentration or dose not given beside the values
# conditionsUsed: 45 °C; heat treatment of enzyme: no; 0 h
Measured Decomposition efficiency of daidzin family in roasted soy flour by item
measurementType: Decomposition efficiency of daidzin family in roasted soy flour

[[record]]
compoundstructure = "O=c1c(-c2ccc(O)cc2)coc2cc(O[C@@H]3O[C@H](CO)[C@@H](O)[C@H](O)[C@H]3O)ccc12"
result = "48.6%"

[[record]]
compoundstructure = "O=c1c(-c2ccc(O)cc2)coc2cc(O)ccc12"
result = "3.7%"

[[record]]
compoundstructure = "CC(=O)OC[C@H]1O[C@@H](Oc2ccc3c(=O)c(-c4ccc(O)cc4)coc3c2)[C@H](O)[C@@H](O)[C@@H]1O"
result = "47.7%"


###

# Tested on: Purified diglycosidase
# testProtocol: Influence of free glucose on diglycosidase activity
# Format: biochemical, Penicillium multicolor IAM7153
# conditionsUsed: Glucose concentration 20 %; isolated aglycon amount at glucose 0% and 0.5 hour = 100%
measurementType: Isolation of isoflavone aglycons by diglycosidase in presence of glucose (%)

[[record]]
compoundstructure = "COc1cc2c(=O)c(-c3ccc(O)cc3)coc2cc1O[C@@H]1O[C@H](COC(C)=O)[C@@H](O)[C@H](O)[C@H]1O"
measureunit = "%"
quantitativereadout = 100.9

[[record]]
compoundstructure = "CC(=O)OC[C@H]1O[C@@H](Oc2cc(O)c3c(=O)c(-c4ccc(O)cc4)coc3c2)[C@H](O)[C@@H](O)[C@@H]1O"
measureunit = "%"
quantitativereadout = 104.1

[[record]]
compoundstructure = "O=c1c(-c2ccc(O)cc2)coc2cc(O[C@@H]3O[C@H](CO)[C@@H](O)[C@H](O)[C@H]3O)ccc12"
measureunit = "%"
quantitativereadout = 111.9


###

# Tested on: Crude diglycosidase
# testProtocol: Examination of temperature in the conversion into isoflavone aglycons by diglycosidase using soybean materials
# Format: biochemical, Penicillium multicolor IAM7153
# conditionsUsed: 45 °C; heat treatment of enzyme: no; 1 h
# Description: Into 400 μL of 20 mM acetate buffer of pH 4.0 was suspended 50 mg of each of various soybean materials (roasted soy flour (manufactured by Fuji Shokuryo K.K.), soymilk (manufactured by Gitoh Shokuhin K.K.), defatted soybean (manufactured by Fuji Seiyu K.K.), concentrated soybean protein (manufactured by Fuji Seiyu K.K.)), whereby a substrate solution was prepared. Crude diglycosidase was diluted with 20 mM acetate buffer of pH 4.0 to be the glycosidase activity of 1.88 AU/mL. […]
measurementType: Decomposition efficiency of glycitin family in soymilk

[[record]]
molecule = "COc1cc2c(=O)c(-c3ccc(O)cc3)coc2cc1O [glycitein]"
result = "53.8%"

[[record]]
molecule = "COc1cc2c(=O)c(-c3ccc(O)cc3)coc2cc1O[C@@H]1O[C@H](COC(C)=O)[C@@H](O)[C@H](O)[C@H]1O [acetylglycitin, 6″-O-acetylglycitin]"
result = "not detected"

[[record]]
molecule = "COc1cc2c(=O)c(-c3ccc(O)cc3)coc2cc1O[C@@H]1O[C@H](CO)[C@@H](O)[C@H](O)[C@H]1O [glycitin]"
result = "not detected"

[[record]]
molecule = "COc1cc2c(=O)c(-c3ccc(O)cc3)coc2cc1O[C@@H]1O[C@H](COC(=O)CC(=O)O)[C@@H](O)[C@H](O)[C@H]1O [malonylglycitin, 6″-O-malonylglycitin]"
result = "46.2%"

